- Tested on: Abeta total produced and secreted by SKNBE2 cells (BACE1)
- Protocol description: BACE1 cellular αLisa assay in SKNBE2 cells, Abeta total
- Type: cell-based, human
- Experimental setup: Homo sapiens, SKNBE2, 18 h, SKNBE2 cells expressing hAPP695, 18 hours incubation; read-out: Cellular αLisa assay in SKNBE2 cells Abetatotal pIC50 (converted)
IC50: recorded values
Give your result in nM as a bare value.

Some solved cases for reference:
>>> recorded_result("Cc1cc(C#N)cnc1C(=O)Nc1ccc(F)c([C@]2(C)Cn3cncc3C(N)=N2)c1 [Compound 7]")
5.5
>>> recorded_result("Cc1nc(C(=O)Nc2ccc(F)c([C@]3(C)Cn4cncc4C(N)=N3)c2)co1 [Compound 4]")
24
>>> recorded_result("C[C@@]1(c2cc(NC(=O)c3ccc(Cl)cn3)ccc2F)Cn2cncc2C(N)=N1 [Compound 3]")
2.34
>>> recorded_result("C[C@@]1(c2cc(-c3cncnc3)ccc2F)Cn2cncc2C(N)=N1 [Compound 2]")
229

Using the record for C[C@@]1(c2cc(NC(=O)c3ccc(Cl)cn3)ccc2F)Cn2c(cnc2C(F)F)C(N)=N1 [Compound 11] , report its IC50. 0.631

Using the record for CC(=O)NCc1ncc2n1C[C@@](C)(c1cc(NC(=O)c3ccc(C#N)cn3)ccc1F)N=C2N [Compound 17] , report its IC50. 5.25

Using the record for COc1cnc(C(=O)Nc2ccc(F)c(C3(CF)Cn4cncc4C(N)=N3)c2)cn1 (racemic) [Compound 13] , report its IC50. 3.63

Using the record for C[C@@]1(c2cc(NC(=O)c3ccc(C#N)cn3)ccc2F)Cn2cncc2C(N)=N1 [Compound 5] , report its IC50. 4.79

Using the record for C[C@@]1(c2cc(NC(=O)c3ccc(C#N)cn3)ccc2F)Cn2c(cnc2C#N)C(N)=N1 [Compound 9] , report its IC50. 2.24

Using the record for C[C@@]1(c2cc(NC(=O)c3ccc(C#N)cn3)ccc2F)Cn2c(cnc2C(F)F)C(N)=N1 [Compound 10] , report its IC50. 1.07

====

- Subject of test: BACE1 (Homo sapiens, UniProt P56817)
- Construct: recombinant BACE1 protein in a final concentration of 0.04 g/ml
- Sequence (P56817 46-501): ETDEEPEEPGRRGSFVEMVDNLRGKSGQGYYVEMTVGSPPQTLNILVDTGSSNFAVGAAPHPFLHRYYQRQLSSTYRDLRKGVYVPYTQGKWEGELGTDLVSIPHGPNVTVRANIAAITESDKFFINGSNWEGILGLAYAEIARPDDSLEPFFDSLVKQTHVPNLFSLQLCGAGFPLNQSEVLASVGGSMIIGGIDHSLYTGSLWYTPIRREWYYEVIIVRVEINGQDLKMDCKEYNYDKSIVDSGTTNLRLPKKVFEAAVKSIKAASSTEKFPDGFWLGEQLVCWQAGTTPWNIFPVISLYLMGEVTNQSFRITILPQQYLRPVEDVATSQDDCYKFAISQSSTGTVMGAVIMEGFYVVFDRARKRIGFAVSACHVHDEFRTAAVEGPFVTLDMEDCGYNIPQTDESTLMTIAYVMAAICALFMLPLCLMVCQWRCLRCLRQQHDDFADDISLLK
- Protocol description: BACE1 biochemical FRET based assay
- Experimental setup: Table 10, comparison with WO2012/085038 compounds; read-out: IC50 (nM), BACE1 biochemical FRET based assay
Attribute measured: IC50 (nM)
Give your result in nM as a bare value.

Some solved cases for reference:
>>> recorded_result("C[C@@]1(c2cc(NC(=O)c3ccc(C#N)cn3)ccc2F)Cn2c(C(F)F)cnc2C(N)=N1 [75 (WO2012/085038), reference compound]")
13.8
>>> recorded_result("COc1cnc(C(=O)Nc2ccc(F)c([C@]3(C)Cn4c(cnc4C(F)F)C(N)=N3)c2)cn1")
3.8
>>> recorded_result("C[C@@]1(c2cc(NC(=O)c3ccc(Cl)cn3)ccc2F)Cn2cncc2C(N)=N1")
3.16
>>> recorded_result("COc1cnc(C(=O)Nc2ccc(F)c([C@]3(C)Cn4c(C(F)F)cnc4C(N)=N3)c2)cn1 [76 (WO2012/085038), reference compound]")
83.2

Using the record for "C[C@@]1(c2cc(NC(=O)c3ccc(Cl)cn3)ccc2F)Cn2c(cnc2C(F)F)C(N)=N1" , report its IC50. 3.16

Using the record for C[C@@]1(c2cc(NC(=O)c3ccc(Cl)cn3)ccc2F)Cn2c(C(F)F)cnc2C(N)=N1 [74 (WO2012/085038), reference compound] , report its IC50. 18.6

Using the record for "C[C@@]1(c2cc(NC(=O)c3ccc(C#N)cn3)ccc2F)Cn2c(cnc2C(F)F)C(N)=N1" , report its IC50. 3.47

====

- Subject of test: BACE2 (Homo sapiens)
- Construct: recombinant BACE2 protein in a final concentration of 0.4 μg/ml
- Sequence (Q9Y5Z0 63-518): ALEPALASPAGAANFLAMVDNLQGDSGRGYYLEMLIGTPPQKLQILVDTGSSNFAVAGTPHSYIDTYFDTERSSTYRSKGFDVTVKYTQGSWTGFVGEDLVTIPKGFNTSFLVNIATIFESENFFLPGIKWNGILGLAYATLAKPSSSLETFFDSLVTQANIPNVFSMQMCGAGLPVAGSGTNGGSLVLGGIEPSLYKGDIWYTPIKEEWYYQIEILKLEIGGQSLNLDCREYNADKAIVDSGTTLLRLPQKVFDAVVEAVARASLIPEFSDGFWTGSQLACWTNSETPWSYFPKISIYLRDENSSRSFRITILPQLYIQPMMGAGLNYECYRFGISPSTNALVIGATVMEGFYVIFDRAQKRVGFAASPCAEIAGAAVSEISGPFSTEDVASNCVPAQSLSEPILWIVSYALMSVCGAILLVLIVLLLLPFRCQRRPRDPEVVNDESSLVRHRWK
- Protocol description: BACE2 biochemical FRET based assay
- Experimental setup: recombinant BACE2, 450 min, pH 5.0; read-out: BACE2 Biochemical FRET based assay pIC50 (converted)
log10 of IC50: recorded values
Heads up: the numbers are on a log10 scale; they represent IC50 in nM.

Some solved cases for reference:
>>> recorded_result("COc1cnc(C(=O)Nc2ccc(F)c([C@]3(C)Cn4cncc4C(N)=N3)c2)cn1 [Compound 1]")
1.74
>>> recorded_result("COc1cnc(C(=O)Nc2ccc(F)c(C3(CF)Cn4cncc4C(N)=N3)c2)cn1 (single isomer, unassigned) [Compound 14]")
3.73
>>> recorded_result("C[C@@]1(c2cc(NC(=O)c3ccc(F)cn3)ccc2F)Cn2cncc2C(N)=N1 [Compound 8]")
1.10
>>> recorded_result("COc1cnc(C(=O)Nc2ccc(F)c(C3(CF)Cn4cncc4C(N)=N3)c2)cn1 (racemic) [Compound 13]")
1.97
>>> recorded_result("C[C@@]1(c2cc(NC(=O)c3ccc(Cl)cn3)ccc2F)Cn2c(cnc2C(F)F)C(N)=N1 [Compound 11]")
0.44

Which log10 of IC50 is reported with BACE2 (Homo sapiens) for this entry: C[C@@]1(c2cc(NC(=O)c3ccc(C#N)cn3)ccc2F)Cn2c(cnc2CC2CC2)C(N)=N1 [Compound 16] ? 0.98

====

IC50: recorded values
- Subject of test: BACE1 (Homo sapiens)
- Construct: recombinant BACE1 protein in a final concentration of 0.04 g/ml
- Protocol description: BACE1 biochemical FRET based assay
- Experimental setup: recombinant BACE1, 450 min, pH 5.0; read-out: BACE1 Biochemical FRET based assay pIC50 (converted)
Give your result in nM as a bare value.

>>> recorded_result("CC(=O)NCc1ncc2n1C[C@@](C)(c1cc(NC(=O)c3ccc(C#N)cn3)ccc1F)N=C2N")
1.86
>>> recorded_result("C[C@@]1(c2cc(NC(=O)c3ccc(C#N)cn3)ccc2F)Cn2c(cnc2C(F)F)C(N)=N1")
3.47

Which IC50 is reported with BACE1 (Homo sapiens) for this entry: "C[C@@]1(c2cc(NC(=O)c3ccc(C#N)cn3)ccc2F)Cn2c(cnc2C#N)C(N)=N1" ? 1.45

Which IC50 is reported with BACE1 (Homo sapiens) for this entry: COc1cnc(C(=O)Nc2ccc(F)c(C3(CF)Cn4cncc4C(N)=N3)c2)cn1 (racemic) [Compound 13] ? 8.32

Which IC50 is reported with BACE1 (Homo sapiens) for this entry: "C[C@@]1(c2cc(NC(=O)c3ccc(C#N)cn3)ccc2F)Cn2c(cnc2CC2CC2)C(N)=N1" ? 1.38

Which IC50 is reported with BACE1 (Homo sapiens) for this entry: "C[C@@]1(c2cc(-c3cncnc3)ccc2F)Cn2cncc2C(N)=N1" ? 708

Which IC50 is reported with BACE1 (Homo sapiens) for this entry: "Cc1nc(C(=O)Nc2ccc(F)c([C@]3(C)Cn4cncc4C(N)=N3)c2)co1" ? 11.7

Which IC50 is reported with BACE1 (Homo sapiens) for this entry: "COc1cnc(C(=O)Nc2ccc(F)c([C@]3(C)Cn4cncc4C(N)=N3)c2)cn1" ? 4.9

Which IC50 is reported with BACE1 (Homo sapiens) for this entry: "C[C@@]1(c2cc(NC(=O)c3ccc(F)cn3)ccc2F)Cn2cncc2C(N)=N1" ? 22.4

Which IC50 is reported with BACE1 (Homo sapiens) for this entry: COc1cnc(C(=O)Nc2ccc(F)c(C3(CF)Cn4cncc4C(N)=N3)c2)cn1 (single isomer, unassigned) [Compound 14] ? 933

Which IC50 is reported with BACE1 (Homo sapiens) for this entry: "C[C@@]1(c2cc(NC(=O)c3ccc(Cl)cn3)ccc2F)Cn2c(cnc2C(F)F)C(N)=N1" ? 3.16

Which IC50 is reported with BACE1 (Homo sapiens) for this entry: "Cc1cc(C#N)cnc1C(=O)Nc1ccc(F)c([C@]2(C)Cn3cncc3C(N)=N2)c1" ? 3.98

Which IC50 is reported with BACE1 (Homo sapiens) for this entry: "C[C@@]1(c2cc(NC(=O)c3ccc(Cl)cn3)ccc2F)Cn2cncc2C(N)=N1" ? 3.16

Which IC50 is reported with BACE1 (Homo sapiens) for this entry: COc1cnc(C(=O)Nc2ccc(F)c(C3(CF)Cn4cncc4C(N)=N3)c2)cn1 (single isomer, unassigned) [Compound 15] ? 2.24

Which IC50 is reported with BACE1 (Homo sapiens) for this entry: "COc1cnc(C(=O)Nc2ccc(F)c([C@]3(C)Cn4c(cnc4C(F)F)C(N)=N3)c2)cn1" ? 3.8

====

- System: Abeta total produced and secreted by SKNBE2 cells (BACE1)
- Protocol description: BACE1 cellular αLisa assay in SKNBE2 cells, Abeta total
- Format: cell-based, human
- Experimental setup: Homo sapiens, SKNBE2, 18 h, SKNBE2 cells expressing hAPP695, 18 hours incubation; read-out: Cellular αLisa assay in SKNBE2 cells Abetatotal pIC50 (converted)
Attribute measured: IC50 (nM)
Give your result in nM as a bare value.

Some solved cases for reference:
>>> recorded_result("C[C@@]1(c2cc(NC(=O)c3ccc(F)cn3)ccc2F)Cn2cncc2C(N)=N1")
17.4
>>> recorded_result("C[C@@]1(c2cc(NC(=O)c3ccc(C#N)cn3)ccc2F)Cn2c(cnc2CC2CC2)C(N)=N1")
2.14
>>> recorded_result("COc1cnc(C(=O)Nc2ccc(F)c([C@]3(C)Cn4cncc4C(N)=N3)c2)cn1")
2.75

Now for the compound whose IC50 we want.
Using the record for "COc1cnc(C(=O)Nc2ccc(F)c([C@]3(C)Cn4c(cnc4C(F)F)C(N)=N3)c2)cn1" , report its IC50. 0.851

FYI, the data here is from patent US9580433B2.
